Sequence of the target: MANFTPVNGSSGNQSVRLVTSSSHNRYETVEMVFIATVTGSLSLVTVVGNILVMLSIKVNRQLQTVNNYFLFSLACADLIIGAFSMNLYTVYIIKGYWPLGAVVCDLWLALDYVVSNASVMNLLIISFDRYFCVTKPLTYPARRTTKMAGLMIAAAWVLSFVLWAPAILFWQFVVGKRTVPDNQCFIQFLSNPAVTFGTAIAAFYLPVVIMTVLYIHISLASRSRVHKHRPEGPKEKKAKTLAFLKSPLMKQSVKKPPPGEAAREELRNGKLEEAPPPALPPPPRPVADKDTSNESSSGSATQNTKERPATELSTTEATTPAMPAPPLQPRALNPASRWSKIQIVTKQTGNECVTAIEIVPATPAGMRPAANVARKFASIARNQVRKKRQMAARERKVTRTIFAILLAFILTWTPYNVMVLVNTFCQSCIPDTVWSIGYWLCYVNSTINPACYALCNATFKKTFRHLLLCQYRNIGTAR
propertyLabel: Ki (nM)
Express it in nM; write the number only.

Data request: Value lookup for Ki; key = `Nc1cccc(-c2ccc(CCN3CCN(CC(=O)c4ccccc4)CC3)cc2)n1`
Data returned: 590
